Test system: Escherichia coli DSM 682
assay text: Bactericidal activity (MBC), 60 min contact
Format: cell-based
test settings: complete kill of inoculum after 60 min incubation; regrowth read after 24 h at 36° C.
measured parameter: MBC Escherichia coli DSM 682

{"compound": "CCCCCCCCC(CCCCCC)COC(=O)CO (stereo not shown) [Compound 3., Hydroxy-acetic 2-hexyl-decyl ester]", "result": ">0.25 % (weight/volume)"}
{"compound": "CCCCCCC(CCCC)COC(=O)CN (stereo not shown)", "result": "0.004 % (weight/volume)"}
{"compound": "CCCCCCCCC(CCCCCC)COC(=O)CN (stereo not shown)", "result": "0.016 % (weight/volume)"}
{"compound": "CCCCC(CC)COC(=O)CN (stereo not shown)", "result": "0.125 % (weight/volume)"}

* * *

Tested on: C. xerosis DSM 20170
assay text: Bacteriostatic activity (MIC), microtiter turbidity
Format: cell-based
test settings: Corynebacterium xerosis, DSM20170, 24 h, read-out: MIC C. xerosis DSM 20170
Mark true (1) only for MIC values smaller than 20 µg/mL; exact matches and larger values are false (0).

{"compound": "CCCCCCCCC(CCCCCC)COC(=O)CN (centres unmarked)", "class label": "true (1)"}
{"compound": "Oc1cc(Cl)ccc1Oc1ccc(Cl)cc1Cl [Compound C4, Triclosan, reference compound]", "class label": "true (1)"}
{"compound": "CCCCCCCCCCCC(=O)OCC(O)CO (centres unmarked) [Compound C1, reference compound]", "class label": "false (0)"}
{"compound": "CCCCC(CC)COC(=O)CN (centres unmarked)", "class label": "false (0)"}

* * *

System: Corynebacterium Ax 15
assay text: Bacteriostatic activity (MIC), microtiter turbidity
Type: cell-based, Corynebacterium jeikeium
test settings: AX15, 24 h, read-out: MIC Corynebacterium Ax 15
Checkbox rule: MIC lower than 10 µg/mL = 1 (yes); MIC not lower than 10 µg/mL = 0 (no).

{"compound": "CCCCC(CC)COC(=O)CN (centres unmarked) [Compound 4.]", "class label": "0 (no)"}
{"compound": "Oc1cc(Cl)ccc1Oc1ccc(Cl)cc1Cl [Compound C4, Triclosan, reference compound]", "class label": "0 (no)"}
{"compound": "CCCCCCCCC(CCCCCC)COC(=O)CN (centres unmarked) [Compound 6.]", "class label": "1 (yes)"}
{"compound": "CCCCCCCCCCCC(=O)OCC(O)CO (centres unmarked) [Compound C1, reference compound]", "class label": "0 (no)"}

* * *

System: C. xerosis DSM 20170
assay text: Bactericidal activity (MBC), 60 min contact
Type: cell-based, Corynebacterium xerosis
test settings: complete kill of inoculum after 60 min incubation; regrowth read after 24 h at 36° C.
Below, each entry is listed with its recorded MBC C. xerosis DSM 20170.

{"compound": "CCCCCCC(CCCC)COC(=O)CO (stereo not drawn) [Compound 2., Hydroxy-acetic acid 2-butyl-octyl ester]", "MBC C. xerosis DSM 20170": ">0.25 % (weight/volume)"}
{"compound": "CCCCCCCCC(CCCCCC)COC(=O)CO (stereo not drawn) [Compound 3., Hydroxy-acetic 2-hexyl-decyl ester]", "MBC C. xerosis DSM 20170": ">0.25 % (weight/volume)"}
{"compound": "CCCCCCC(CCCC)COC(=O)CN (stereo not drawn)", "MBC C. xerosis DSM 20170": "0.004 % (weight/volume)"}
{"compound": "CCCCCCCCC(CCCCCC)COC(=O)CN (stereo not drawn)", "MBC C. xerosis DSM 20170": "0.002 % (weight/volume)"}
{"compound": "CCCCC(CC)COC(=O)CO (stereo not drawn) [Compound 1., Hydroxy-acetic acid 2-ethyl-hexyl ester]", "MBC C. xerosis DSM 20170": "0.125 % (weight/volume)"}
{"compound": "CCCCC(CC)COC(=O)CN (stereo not drawn)", "MBC C. xerosis DSM 20170": ">0.25 % (weight/volume)"}
